- Experimental Target: Virion infectivity factor (Human immunodeficiency virus type 1 group M subtype B (isolate BH10)) + Virion infectivity factor (Human immunodeficiency virus type 1 group M subtype B (isolate BRU/LAI)) + Virion infectivity factor (Human immunodeficiency virus type 1 group M subtype B (isolate PCV12)) + Virion infectivity factor (Human immunodeficiency virus type 1 group M subtype B (isolate HXB2)) + DNA dC->dU-editing enzyme APOBEC-3G (Homo sapiens) (UniProt P69720+P69721+P69722+P69723+Q9HC16)
- Method Summary: inhibitors of Vif binding to APOBEC3G peptide, primary screen, biochemical, TR-FRET, GST-Vif 1-94, biotin-A3G peptide, dose response retest (AID 1117319);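 also: Vif residues 1-94 fused to GST binding biotinylated APOBEC3G peptide 110-148; 0% = full assay without inhibitor and 100% = GST in place of GST-Vif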
- Settings: hits give high values
Among all 260,000 compounds or so, about 1,500 (0.58%) were called active. Another 5% or so got no clear call; they are omitted. Not all results are given here. Entries with a potency or affinity are not part of this list.
Test Readout: inhibition (%)
Give bare numbers, in %.

Before answering, review these 8 worked examples.
{"Molecule": "Cc1ccc(C)c(NS(=O)(=O)c2ccc(OCC(=O)N3CCCC3)cc2)c1", "Unit Info": "%", "inhibition": 1.52}
{"Molecule": "COC(=O)C1CC(c2ccccc2)N(c2ccccc2)O1 (stereo not given)", "Unit Info": "%", "inhibition": -1.63}
{"Molecule": "CCOC(=O)N1CCN(C(=O)CN(CC)S(=O)(=O)c2cc(C)ccc2OC)CC1", "Unit Info": "%", "inhibition": -2.01}
{"Molecule": "CCn1c(SCC(=O)N2CCCc3ccccc32)nc2ccccc2c1=O", "Unit Info": "%", "inhibition": -1.92}
{"Molecule": "COCCNC(=O)c1cc(-c2ccncc2)nc2ccc(S(=O)(=O)N3CCOCC3)cc12", "Unit Info": "%", "inhibition": -13.5}
{"Molecule": "CCNc1ccc(C(=O)NN=C2CCCC2)cc1[N+](=O)[O-]", "Unit Info": "%", "inhibition": 4.6}
{"Molecule": "NS(=O)(=O)c1ccc(NC(=O)C2CCCN(S(=O)(=O)c3ccc(F)cc3)C2)cc1 (stereo not given)", "Unit Info": "%", "inhibition": -11.9}
{"Molecule": "COC(=O)CCN(C(=O)c1ccc(Cl)c([N+](=O)[O-])c1)c1ccccn1", "Unit Info": "%", "inhibition": 21.1}

// each listed molecule needs a value for inhibition
1. COc1ccc(NC(=O)COC(=O)c2ccc(S(=O)(=O)N3CC(C)CC(C)C3)cc2)cc1OC (stereo not given)
2. CC1(C(=O)N2CCOCC2)CCCCC1

Completion:
1: 0.85; 2: -0.21
